Listed here are molecules together with their documented melting point.

INSERT INTO results (molecule, measurement_name, recorded_measurement) VALUES
  ('COC(=O)Cn1ncc2c(Cl)ncnc21', 'melting point', '66 to 68 °C'),
  ('O=c1[nH]c(CCl)nc2scc(-c3ccccc3)c12', 'melting point', '227 to 229 °C'),
  ('CC1(NC(=O)CCl)CCS(=O)(=O)C1 (stereo unspecified)', 'melting point', '96 to 98 °C'),
  ('CCNc1ncc(C(=O)OC)s1', 'melting point', '136 to 138 °C'),
  ('CCOC(=O)c1sc2nc(Cl)cc(C)c2c1C', 'melting point', '125 to 127 °C');

I have this molecule here, `Nc1nc(N)nc(CO)n1` , and I need its recorded melting point.
269 to 271 °C

I have this molecule here, `O=Cc1ccc(-c2ccc(Cl)cc2[N+](=O)[O-])o1` , and I need its recorded melting point.
92 to 94 °C

I have this molecule here, `CS(=O)(=O)c1cccc(C(=O)c2ccc(F)c(F)c2)c1` , and I need its recorded melting point.
122 to 124 °C

I have this molecule here, `COC(=O)c1cncc(C(=O)O)c1` , and I need its recorded melting point.
225 to 227 °C

I have this molecule here, `O=C1CCc2c(Br)cccc21` , and I need its recorded melting point.
95 to 99 °C

I have this molecule here, CC(=O)N1Cc2ccccc2CC1C(=O)O (stereo unspecified) , and I need its recorded melting point.
173 to 175 °C

----------
Measurement Name: melting point

Recorded results for 3 molecules are shown here.
INSERT INTO results (molecule, measurement_name, recorded_measurement) VALUES
  ('Nc1cc(Cl)c(NC(=O)c2ccsc2)c(Cl)c1', 'melting point', '206 to 208 °C'),
  ('Cc1cc(C)n(-c2ccc(S(N)(=O)=O)cc2)n1', 'melting point', '243 to 245 °C'),
  ('CCOC(=O)c1ccn[nH]1', 'melting point', '159 to 161 °C');

I have this molecule here, C#CCNC(=O)NC1(C(=O)O)CCc2ccccc21 (configuration not stated) , and I need its recorded melting point.
181 to 183 °C

I have this molecule here, `NC(=O)c1ccc2[nH]cc(C3CCNCC3)c2c1` , and I need its recorded melting point.
149 to 151 °C

I have this molecule here, `O=C(O)c1cc2cccc(F)c2o1` , and I need its recorded melting point.
242 to 244 °C

----------
Measurement Name: melting point

INSERT INTO results (compound, recorded_measurement) VALUES
  ('O=C(O)C12CC3CC(CC(F)(C3)C1)C2', '109 to 111 °C'),
  ('O=C(O)Cc1csc(-c2c(Cl)cccc2Cl)n1', '142 to 144 °C'),
  ('O=C1CCNc2ccc(C(=O)O)cc2N1', '281 to 283 °C'),
  ('CNC(=O)Cc1noc(CCl)n1', '89 to 91 °C');

I have this compound here, `Cc1ccc2[nH]cc(C=O)c2c1` , and I need its recorded melting point.
142 to 144 °C

I have this compound here, `Cc1ccccc1-c1csc(N)n1` , and I need its recorded melting point.
80 to 82 °C

I have this compound here, `CN(C)c1ccc(N)cc1Cl` , and I need its recorded melting point.
72 to 73 °C

I have this compound here, `Sc1nnnn1-c1ccccc1` , and I need its recorded melting point.
145 to 147 °C

I have this compound here, `Cc1oc(-c2ccc(Cl)cc2)nc1C(=O)O` , and I need its recorded melting point.
235 to 237 °C

I have this compound here, CC(Oc1ccccc1Br)C(=O)O (stereo unspecified) , and I need its recorded melting point.
138 to 140 °C

I have this compound here, `CSC=CC(=O)O` , and I need its recorded melting point.
118 to 120 °C

I have this compound here, `CC(=O)c1cnc2ccnn2c1C` , and I need its recorded melting point.
80 to 82 °C

I have this compound here, `Cc1ccccc1-c1cc(N)[nH]n1` , and I need its recorded melting point.
168 to 170 °C

----------
Listed here are molecules together with their documented melting point.

Recorded results for 3 molecules are shown here.
INSERT INTO measurements (compound_smiles, measurement_name, recorded_measurement) VALUES
  ('Sc1nc(-c2ccccn2)no1', 'melting point', '146 to 148 °C'),
  ('NNC(=O)NC1CCCC1', 'melting point', '124 to 126 °C'),
  ('CCc1ccc(-c2nn(-c3ccccc3C)cc2C(=O)O)cc1', 'melting point', '177 to 179 °C');

I have this molecule here, `Cc1cc(C=O)cnc1Cl` , and I need its recorded melting point.
47 to 49 °C

I have this molecule here, `NCC(=O)Nc1cccc(Br)c1` , and I need its recorded melting point.
79 to 81 °C

I have this molecule here, `O=c1[nH]c2cnccc2n1Cc1ccccc1` , and I need its recorded melting point.
213 to 215 °C

I have this molecule here, `Cc1cccc(-n2c(=O)[nH]c3cc(C(=O)O)ccc3c2=O)c1` , and I need its recorded melting point.
344 to 346 °C

I have this molecule here, `CS(=O)(=O)c1cccc(C(=O)c2cc(F)ccc2F)c1` , and I need its recorded melting point.
87 to 89 °C

I have this molecule here, `Clc1c[nH]c2ccccc12` , and I need its recorded melting point.
79 to 81 °C

I have this molecule here, `Cc1nn(C)c2ncc(SC(=O)N(C)C)cc12` , and I need its recorded melting point.
144 to 146 °C

I have this molecule here, `NS(=O)(=O)c1ccccc1S(=O)(=O)Cl` , and I need its recorded melting point.
179 to 181 °C

I have this molecule here, `CCOC(=O)c1sc(-c2ccc(Cl)cc2Cl)cc1N` , and I need its recorded melting point.
100 to 102 °C

I have this molecule here, `O=C1NC(=O)C2(CCOCC2)N1` , and I need its recorded melting point.
264 to 266 °C

----------
Listed here are compounds together with their documented melting point.

INSERT INTO results (compound, recorded_measurement) VALUES
  ('CCN1N=C(C)CC1=O', '107 to 109 °C'),
  ('Nc1cc(Cl)ccc1S(N)(=O)=O', '142 to 144 °C'),
  ('Cc1cc(C=O)c(C)n1-c1nccs1', '43 to 45 °C'),
  ('O=C1CCCN1c1cccc(O)c1', '201 to 203 °C'),
  ('CN1CCC(O)(Cc2ccccc2Cl)CC1', '73 to 75 °C');

I have this compound here, `Cc1ccc(C(=O)Nc2cccc(C(F)(F)F)c2)cc1N` , and I need its recorded melting point.
109 to 111 °C

I have this compound here, `CCc1c(C)nc2ccccc2c1O` , and I need its recorded melting point.
279 to 281 °C

I have this compound here, `NC(=S)CN1C(=O)c2ccccc2C1=O` , and I need its recorded melting point.
173 to 175 °C

----------
Listed here are compounds together with their documented melting point.

Recorded results for 5 compounds are shown here.
INSERT INTO results (compound, measurement_name, recorded_measurement) VALUES
  ('Nc1ccc(-n2cc(S(N)(=O)=O)cn2)nc1', 'melting point', '218 to 220 °C'),
  ('COc1ccccc1-c1ccc(C(C)=O)cc1', 'melting point', '107 to 109 °C'),
  ('O=C(O)c1cccnc1S(=O)(=O)C(F)(F)F', 'melting point', '126 to 128 °C'),
  ('O=C(O)CCCCc1cccc(O)c1', 'melting point', '115 to 117 °C'),
  ('O=C1CCCC1c1ccccc1 (stereo not drawn)', 'melting point', '35 to 37 °C');

I have this compound here, `CCOC(=O)CC(=O)CN1C(=O)c2ccccc2S1(=O)=O` , and I need its recorded melting point.
104 to 106 °C

I have this compound here, `Nc1cccc(-c2csc(N)n2)c1` , and I need its recorded melting point.
174 to 176 °C

I have this compound here, `CCOC(=O)c1nc(Br)sc1NC` , and I need its recorded melting point.
75 to 77 °C

----------
Measurement Name: melting point

Recorded results for 2 compounds are shown here.
INSERT INTO measurements (compound, measurement_name, recorded_measurement) VALUES
  ('CCC(=O)NC=C(Cl)Cl', 'melting point', '93 to 95 °C'),
  ('c1ccc(NCc2ccc3c(c2)OCO3)cc1', 'melting point', '78 to 80 °C');

I have this compound here, CC(CC(=O)O)NS(=O)(=O)c1cccnc1Cl (stereo not drawn) , and I need its recorded melting point.
144 to 146 °C

I have this compound here, CC1CCc2sc(C(=O)O)cc2C1 (stereo not drawn) , and I need its recorded melting point.
132 to 136 °C

----------
Measurement Name: melting point

Recorded results for 5 molecules are shown here.
INSERT INTO measurements (molecule, measurement_name, recorded_measurement) VALUES
  ('Cc1ccccc1C(C)(C)C(=O)O', 'melting point', '93 to 95 °C'),
  ('CS(=O)(=O)Nc1cccc(C#N)c1', 'melting point', '154 to 156 °C'),
  ('Cc1ccnc(Oc2ccc(N)cc2)n1', 'melting point', '119 to 121 °C'),
  ('N#Cc1ccc(S(N)(=O)=O)cc1C(F)(F)F', 'melting point', '195 to 197 °C'),
  ('Cc1nc2ncnn2c(C)c1CCC(=O)O', 'melting point', '224 to 226 °C');

I have this molecule here, `OCCCNC(c1ccccc1)c1ccccc1` , and I need its recorded melting point.
62 to 64 °C

I have this molecule here, `NNC(=O)CSc1ccccc1F` , and I need its recorded melting point.
131 to 133 °C

I have this molecule here, `CCOC(=O)c1c[nH]cc1C(F)(F)F` , and I need its recorded melting point.
161 to 163 °C
